The values you see were collected from patent US20170247475A1.

Measured IC50 (nM), VEGF HUVEC Erk phosphorylation assay accompanies every entry in the list below.
system_tested: VEGF
assay_overview: cell-based or functional assay
quantity_measured: IC50 (nM), VEGF HUVEC Erk phosphorylation assay

* VEGFBII023 (VHH, biparatopic bivalent VHH in one chain; also called VEGFBII23B04-40GS-10E07; VEGFBI023) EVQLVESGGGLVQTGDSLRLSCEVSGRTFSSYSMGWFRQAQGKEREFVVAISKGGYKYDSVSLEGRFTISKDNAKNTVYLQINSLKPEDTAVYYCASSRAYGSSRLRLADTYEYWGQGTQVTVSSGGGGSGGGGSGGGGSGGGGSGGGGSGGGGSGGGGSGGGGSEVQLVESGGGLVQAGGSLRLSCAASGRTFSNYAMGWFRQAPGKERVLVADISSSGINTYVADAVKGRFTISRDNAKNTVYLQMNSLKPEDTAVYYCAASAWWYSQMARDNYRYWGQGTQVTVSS | 0.25
* VEGFBII010 (VHH, bivalent VHH in one chain; also called VEGFBII23B04-35GS-23B04; homodimeric VEGFBII23B04) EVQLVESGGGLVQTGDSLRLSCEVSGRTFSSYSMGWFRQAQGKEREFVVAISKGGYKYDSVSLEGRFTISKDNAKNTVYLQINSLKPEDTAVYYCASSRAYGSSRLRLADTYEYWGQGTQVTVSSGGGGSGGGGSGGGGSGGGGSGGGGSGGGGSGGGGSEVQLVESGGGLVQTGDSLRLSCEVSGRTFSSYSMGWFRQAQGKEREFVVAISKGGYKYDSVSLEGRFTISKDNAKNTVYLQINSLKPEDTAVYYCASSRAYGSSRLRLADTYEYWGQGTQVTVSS | 0.19
* VEGFBII022 (VHH, biparatopic bivalent VHH in one chain; also called VEGFBII23B04-9GS-5B05) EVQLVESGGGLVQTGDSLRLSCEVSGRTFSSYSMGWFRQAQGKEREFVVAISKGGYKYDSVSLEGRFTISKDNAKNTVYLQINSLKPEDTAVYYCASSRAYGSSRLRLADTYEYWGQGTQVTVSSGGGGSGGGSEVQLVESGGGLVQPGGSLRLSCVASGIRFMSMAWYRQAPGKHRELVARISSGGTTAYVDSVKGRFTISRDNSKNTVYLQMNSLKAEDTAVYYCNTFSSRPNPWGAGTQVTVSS | 0.18
* VEGFBII025 (VHH, biparatopic bivalent VHH in one chain; also called VEGFBII10E07-40GS-23B04) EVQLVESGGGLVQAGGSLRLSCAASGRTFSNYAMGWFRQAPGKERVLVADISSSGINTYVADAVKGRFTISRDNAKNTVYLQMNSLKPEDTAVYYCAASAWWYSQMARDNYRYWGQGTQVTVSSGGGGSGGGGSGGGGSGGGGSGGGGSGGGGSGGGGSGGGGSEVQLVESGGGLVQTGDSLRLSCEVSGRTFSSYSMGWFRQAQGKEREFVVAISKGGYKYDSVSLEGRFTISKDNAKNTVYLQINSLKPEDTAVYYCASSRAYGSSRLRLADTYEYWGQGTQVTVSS | 0.23
* VEGFBII024 (VHH, biparatopic bivalent VHH in one chain; also called VEGFBII23B04-40GS-86H09; VEGFBI024) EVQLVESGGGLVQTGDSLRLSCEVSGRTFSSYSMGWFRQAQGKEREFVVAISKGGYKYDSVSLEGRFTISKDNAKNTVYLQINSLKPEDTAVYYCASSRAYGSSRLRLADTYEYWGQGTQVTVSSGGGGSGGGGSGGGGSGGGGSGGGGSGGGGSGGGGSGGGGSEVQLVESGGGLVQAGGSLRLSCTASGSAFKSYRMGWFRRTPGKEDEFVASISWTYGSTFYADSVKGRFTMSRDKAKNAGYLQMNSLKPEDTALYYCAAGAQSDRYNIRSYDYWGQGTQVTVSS | 0.23
* VEGFBII021 (VHH, biparatopic bivalent VHH in one chain; also called VEGFBII23B04-40GS-5B05) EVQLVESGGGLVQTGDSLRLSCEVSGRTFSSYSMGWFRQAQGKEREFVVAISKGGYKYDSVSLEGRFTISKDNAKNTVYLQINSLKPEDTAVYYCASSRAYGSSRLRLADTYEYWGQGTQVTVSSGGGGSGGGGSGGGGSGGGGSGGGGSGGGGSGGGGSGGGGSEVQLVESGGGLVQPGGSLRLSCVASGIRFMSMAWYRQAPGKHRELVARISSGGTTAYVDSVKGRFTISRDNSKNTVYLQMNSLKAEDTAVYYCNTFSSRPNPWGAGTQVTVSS | 0.21
